TGI: recorded values
- Test system: RXF 393 renal
- Measurement Description: NCI tumour cell line growth inhibition, 48 h
Observed Property: TGI (µM)

* Cc1ccc(-c2csc(/N=C3\C(=O)Nc4ccccc43)n2)cc1 | 3.16
* O=C(CO[N+](=O)[O-])Nc1ccc(C(=O)/C=C/c2ccc(Cl)cc2)cc1 | 17.8
* Fc1ccc2[nH]cc(-c3nonc3-c3c[nH]c4ccc(Br)cc34)c2c1 | 8.75
* CCc1cc(Cc2cc(Cl)c(NC(=O)C(=O)C3NC(=O)NC3=O)c(CC)c2)cc(Cl)c1NC(=O)C(=O)C1NC(=O)NC1=O (stereo not given) | 59.9
* CC[C@]12C=CCN3CC[C@@]4(c5cc(Br)c(OC)cc5N(C)[C@H]4[C@@](O)(C(=O)NN)[C@@H]1O)[C@@H]32 | 99.2
